From: ChEMBL document CHEMBL4152188

Quick list: MIC per entry.
Test system: Pseudomonas aeruginosa
Experiment: Antibacterial activity against IMP-4 producing Pseudomonas aeruginosa isolate 208247 after 18 hrs in presence of BPL by CLSI broth microdilution method
Format: functional
Conditions: isolate 208247, 18 h
Dear colleague, please return just the value in µg/mL, with no unit written.

- COMPOUND: "CC(C)C(O/N=C(\\C(=O)N[C@@H]1C(=O)N(S(=O)(=O)O)[C@@H]1CN1CCNC1=O)c1csc(N)n1)c1cc(=O)c(O)cn1O (some centres undefined)"
  TARGET_OR_SYSTEM: "Pseudomonas aeruginosa"
  MIC, µg/mL: 64

Moving on to another compound below.
Req: Give the measured MIC for CC(C)C(O/N=C(\C(=O)NC1C(=O)N(S(=O)(=O)O)C12CCOCC2)c1csc(N)n1)c1cc(=O)c(O)cn1O (centres undefined)
Resp: 64

---

System: Pseudomonas aeruginosa
Test: Antibacterial activity against IMP-4 producing Pseudomonas aeruginosa isolate 212886 after 18 hrs by CLSI broth microdilution method
Format: functional
Conditions: isolate 212886, 18 h
Quick list: MIC per entry.

- COMPOUND: "CC(C)C(O/N=C(\\C(=O)N[C@@H]1C(=O)N(S(=O)(=O)O)C12CCCC2)c1csc(N)n1)c1cc(=O)c(O)cn1O (some centres undefined)"
  TARGET_OR_SYSTEM: "Pseudomonas aeruginosa"
  MIC: "16 µg/mL"
- COMPOUND: "CC(C)C(O/N=C(\\C(=O)N[C@@H]1C(=O)N(S(=O)(=O)O)[C@@H]1CSc1nc(=O)c(O)nn1C)c1csc(N)n1)c1cc(=O)c(O)cn1O (some centres undefined)"
  TARGET_OR_SYSTEM: "Pseudomonas aeruginosa"
  MIC: "> 64 µg/mL"
- COMPOUND: "COC[C@@H]1[C@H](NC(=O)/C(=N\\OC(c2cc(=O)c(O)cn2O)C(C)C)c2csc(N)n2)C(=O)N1S(=O)(=O)O (some centres undefined)"
  TARGET_OR_SYSTEM: "Pseudomonas aeruginosa"
  MIC: "16 µg/mL"

Req: Give the measured MIC for CC(C)C(O/N=C(\C(=O)N[C@@H]1C(=O)N(S(=O)(=O)O)[C@@H]1COS(=O)(=O)O)c1csc(N)n1)c1cc(=O)c(O)cn1O (some centres undefined)
Resp: > 64 µg/mL

---

Assay: Intrinsic clearance in mouse liver microsomes assessed per g protein at 0.1 uM pre-incubated with compound followed by NADPH addition and measured after 60 mins by LC-MS/MS analysis
Assay type: ADME, microsome
Conditions: 1 h
RESULT_TYPE: CLint (mL/min/g)
Dear colleague, please return just the value in mL/min/g, with no unit written.

Answered examples (3):
- COMPOUND: "CC(C)C(O/N=C(\\C(=O)N[C@@H]1C(=O)N(S(=O)(=O)O)[C@@H]1Cn1cc(COCc2cc(=O)c(O)cn2O)nn1)c1csc(N)n1)c1cc(=O)c(O)cn1O (some centres undefined)"
  UNIT_LABEL: "mL/min/g"
  CLint: 27.1
- COMPOUND: "CC(C)C(O/N=C(\\C(=O)N[C@@H]1C(=O)N(S(=O)(=O)O)[C@@H]1COC(N)=O)c1csc(N)n1)c1cc(=O)c(O)cn1O (some centres undefined)"
  UNIT_LABEL: "mL/min/g"
  CLint: 3.41
- COMPOUND: "CC(C)C(O/N=C(\\C(=O)N[C@@H]1C(=O)N(S(=O)(=O)O)[C@@H]1CCl)c1csc(N)n1)c1cc(=O)c(O)cn1O (some centres undefined)"
  UNIT_LABEL: "mL/min/g"
  CLint: 29

Moving on to another compound below.
Req: Give the measured CLint for CC(C)C(O/N=C(\C(=O)N[C@@H]1C(=O)N(S(=O)(=O)O)C12CCCC2)c1csc(N)n1)c1cc(=O)c(O)cn1O (some centres undefined)
Resp: 5.59
